- system: CDK6/cyclin D3 (Homo sapiens, UniProt Q00534)
- Sequence (Q00534 whole entry, species assumed): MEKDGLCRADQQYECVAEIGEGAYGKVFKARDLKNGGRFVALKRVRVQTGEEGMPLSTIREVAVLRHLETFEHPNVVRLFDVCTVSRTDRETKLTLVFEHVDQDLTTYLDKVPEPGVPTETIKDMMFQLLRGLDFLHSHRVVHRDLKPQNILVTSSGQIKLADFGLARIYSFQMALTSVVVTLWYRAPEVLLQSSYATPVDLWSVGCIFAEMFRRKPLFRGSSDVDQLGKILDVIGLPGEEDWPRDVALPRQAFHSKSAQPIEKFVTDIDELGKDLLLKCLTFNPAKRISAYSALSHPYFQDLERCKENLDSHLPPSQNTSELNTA
- Sequence (P30281 whole entry partner, species assumed): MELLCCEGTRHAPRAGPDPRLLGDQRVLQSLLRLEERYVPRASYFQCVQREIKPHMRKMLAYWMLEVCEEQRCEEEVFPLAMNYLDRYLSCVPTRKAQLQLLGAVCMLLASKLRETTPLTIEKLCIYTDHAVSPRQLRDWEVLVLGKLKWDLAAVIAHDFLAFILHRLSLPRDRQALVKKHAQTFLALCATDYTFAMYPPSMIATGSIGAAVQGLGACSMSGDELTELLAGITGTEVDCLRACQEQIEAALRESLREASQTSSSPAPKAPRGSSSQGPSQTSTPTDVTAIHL
- measurementNotes: Assay of kinase activity (ADP-Glo)
- cond: kinase inhibitory activity
pIC50: −log10 of the molar value.
measurementKind: pIC50

smi: CC(C)n1nnc2ccc3cnc(Nc4ccc(C(=O)N5CCC(O)CC5)cc4)nc3c21
system: CDK6/cyclin D3 (Homo sapiens, UniProt Q00534)
experimentalValue: 7.80

smi: C[C@@H](n1nnc2ccc3cnc(Nc4ccc(C(=O)N5CCS(=O)(=O)CC5)cc4)nc3c21)C(C)(C)O
system: CDK6/cyclin D3 (Homo sapiens, UniProt Q00534)
experimentalValue: 7.82

smi: CC(C)n1nnc2ccc3cnc(Nc4ccc(C(=O)N5CCC(F)(F)CC5)cc4)nc3c21
system: CDK6/cyclin D3 (Homo sapiens, UniProt Q00534)
experimentalValue: 7.96

smi: CC(C)n1nnc2ccc3cnc(Nc4ccc(C(=O)N5CCOCC5)cc4)nc3c21
system: CDK6/cyclin D3 (Homo sapiens, UniProt Q00534)
experimentalValue: 7.92
